# Target Desc: human GPR40 (Homo sapiens)
# Construct: expressed in transfected cells
# Sequence (O14842 whole entry): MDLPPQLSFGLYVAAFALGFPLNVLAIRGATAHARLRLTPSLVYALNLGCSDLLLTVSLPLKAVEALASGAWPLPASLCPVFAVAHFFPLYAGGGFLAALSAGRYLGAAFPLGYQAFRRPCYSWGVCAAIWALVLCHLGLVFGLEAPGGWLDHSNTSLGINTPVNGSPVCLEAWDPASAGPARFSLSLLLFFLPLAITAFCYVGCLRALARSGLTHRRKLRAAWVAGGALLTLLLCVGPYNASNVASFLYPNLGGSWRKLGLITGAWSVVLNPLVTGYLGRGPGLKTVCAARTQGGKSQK
# Test Name: GPR40 calcium flux assay, human GPR40
# Format: cell-based
# Reported Conditions: HEK293 cells stably expressing GPR40; table does not say human or rat
Measured EC50 of individual entries
Give the value in µM but do not write µM after it.

Compound	Unit Spec	Experimental Value
Cc1c(CCC(=O)O)ccc(OCC2=C(c3ccc(Cl)cc3)CCC(C)(C)C2)c1C [Compound 541]	µM	4.76

# evaluate next
Req: Using the record for O=C(O)CCc1ccc(OCC2=C(Cc3ccccc3)CC(F)(F)C2)cc1C(F)(F)F [Compound 358] , report its EC50.
Resp: 0.065

Source of measurements: patent US11230526B1
